molecular target: human ether-à-go-go-related gene (hERG) potassium channel (human, UniProt Q12809); assay: primary screen, population patch clamp on CHO cells stably expressing hERG; higher = less effect of the substance;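 also: peak tail current of the secondary pulse compared with the same well before compound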
Sequence (Q12809 whole entry, looked up): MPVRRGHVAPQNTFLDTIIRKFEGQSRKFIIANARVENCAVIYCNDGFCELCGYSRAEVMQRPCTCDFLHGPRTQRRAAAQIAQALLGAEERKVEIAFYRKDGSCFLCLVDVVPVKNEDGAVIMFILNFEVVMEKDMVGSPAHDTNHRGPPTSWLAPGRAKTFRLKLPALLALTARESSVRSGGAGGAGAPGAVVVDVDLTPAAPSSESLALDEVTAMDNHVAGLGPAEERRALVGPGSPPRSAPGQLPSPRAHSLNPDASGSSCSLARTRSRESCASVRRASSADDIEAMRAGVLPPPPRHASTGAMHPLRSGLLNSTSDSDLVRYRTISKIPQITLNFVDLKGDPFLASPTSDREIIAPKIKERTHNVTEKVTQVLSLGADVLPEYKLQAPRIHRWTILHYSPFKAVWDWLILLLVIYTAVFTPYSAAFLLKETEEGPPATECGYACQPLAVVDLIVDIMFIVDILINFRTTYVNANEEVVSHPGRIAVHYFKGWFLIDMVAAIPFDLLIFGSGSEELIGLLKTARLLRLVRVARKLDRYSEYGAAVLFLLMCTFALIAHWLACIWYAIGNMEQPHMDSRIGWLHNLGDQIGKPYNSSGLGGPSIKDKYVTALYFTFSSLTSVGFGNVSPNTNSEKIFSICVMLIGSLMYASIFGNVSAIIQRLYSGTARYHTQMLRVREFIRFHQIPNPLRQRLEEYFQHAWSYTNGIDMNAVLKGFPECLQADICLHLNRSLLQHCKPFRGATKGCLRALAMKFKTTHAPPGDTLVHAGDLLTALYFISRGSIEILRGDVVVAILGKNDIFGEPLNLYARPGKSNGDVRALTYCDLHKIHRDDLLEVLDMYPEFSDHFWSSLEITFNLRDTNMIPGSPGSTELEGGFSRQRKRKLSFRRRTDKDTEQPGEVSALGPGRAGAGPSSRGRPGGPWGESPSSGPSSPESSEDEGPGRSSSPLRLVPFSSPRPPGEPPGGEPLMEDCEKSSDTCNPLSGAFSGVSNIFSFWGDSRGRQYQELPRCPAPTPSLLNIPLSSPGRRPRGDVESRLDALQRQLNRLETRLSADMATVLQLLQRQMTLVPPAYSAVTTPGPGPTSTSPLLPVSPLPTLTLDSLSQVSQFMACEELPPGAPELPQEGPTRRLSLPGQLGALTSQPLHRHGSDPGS
Among all 310,000 compounds or so, about 14,000 (4.5%) showed an effect of 50% or more. The effect is printed as a negative number. What follows is part of a selection rich in strong results, with near analogues and random picks from the rest.
Entries and their hERG current change (%, negative = inhibition) at 10uM
All answers are understood in %, so give the number only.

Worked examples, 3 molecules total:
Exercise: Find the measured hERG current change (%, negative = inhibition) at 10uM of CCOc1cccc2sc(N(CCN(C)C)C(=O)/C=C/c3cccs3)nc12.Cl and report it.
Key: -40.7

Exercise: Determine from records and report hERG current change (%, negative = inhibition) at 10uM for COC(C(=O)N/N=C(\C)CC(=O)Nc1ccc(N(C)C)cc1)c1ccccc1 (centres unmarked)
Key: 15.3

Exercise: Assign hERG current change (%, negative = inhibition) at 10uM to the following record: COc1ccc2nc(SCC(N)=O)[nH]c2c1
Key: -2.83

More entries:
Exercise: Let me know recorded hERG current change (%, negative = inhibition) at 10uM for CCN(CC)CCSc1nc2ccc(OC)cc2[nH]1.Cl , thanks.
Key: -64.7

Exercise: Query hERG current change (%, negative = inhibition) at 10uM for CCOc1cccc2sc(N(CCCN(C)C)C(=O)c3ccc(S(=O)(=O)N(C)CC4CCCO4)cc3)nc12.Cl (centres unmarked)
Key: -77.4

Exercise: Quote hERG current change (%, negative = inhibition) at 10uM reported for COc1ccccc1OCCC(=O)OCC(=O)Nc1cc(S(=O)(=O)N(C)C)ccc1Cl please.
Key: -6.26

* * *

Below, each entry is listed alongside its reported hERG current change (%, negative = inhibition) at 10uM.
target: human ether-à-go-go-related gene (hERG) potassium channel (human); experiment: primary screen, population patch clamp on CHO cells stably expressing hERG; higher = less effect of the substance;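 also: peak tail current of the secondary pulse compared with the same well before compound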
Out of some 310,000 compounds screened, about 14,000 (4.5%) showed an effect of 50% or more. Effects have a minus sign here. Shown is part of a subset that was picked to be rich in strong results.
Answer with a number only, understood to be in %.

Check out these entries, answers already filled in.
Exercise: State its hERG current change (%, negative = inhibition) at 10uM for this compound: O=C(Nn1c(-c2ccc(Br)cc2)nc2ccccc2c1=O)c1ccncc1
Key: 20.2

Exercise: Using the record for CC(C)CCNC(=O)CN(Cc1cccs1)C(=O)CCC(=O)Nc1nccs1 , state its measured hERG current change (%, negative = inhibition) at 10uM.
Key: -10.6

Exercise: Supply hERG current change (%, negative = inhibition) at 10uM value. Item: CCCCn1c(CN2CCN(C(=O)OCC)CC2)nc2c1c(=O)n(C)c(=O)n2C
Key: -18.1

Exercise: Give reported hERG current change (%, negative = inhibition) at 10uM value for CCCCCCn1c(CN2CCCCC2)nc2c1c(=O)n(C)c(=O)n2C
Key: -35.7

Exercise: Consider the compound CCCCCCn1c(CN2CCCC(C)C2)nc2c1c(=O)n(C)c(=O)n2C (centres unmarked) . State its measured hERG current change (%, negative = inhibition) at 10uM.
Key: -58.1

Next:
Exercise: Please give measured hERG current change (%, negative = inhibition) at 10uM of the following entry: CC(C)Cn1c(C(C)C)nc([N+](=O)[O-])c1Sc1ccc(Cl)cn1
Key: -6.57

Exercise: Consider the compound Cc1ccc(S(=O)(=O)Nc2ccc(N3CCOCC3)cc2)cc1C and give its recorded hERG current change (%, negative = inhibition) at 10uM.
Key: 2.95

Exercise: Note hERG current change (%, negative = inhibition) at 10uM for the compound shown: Cc1nc2ccccc2c(=O)n1NC(=O)C1CC1
Key: 16.3

Exercise: Give hERG current change (%, negative = inhibition) at 10uM for Cc1ccc(NC(=O)c2ccc(Oc3ncccn3)cc2)cc1
Key: 12.2

Reference for the values: paper PMC4336329
